# Test system: axenic Leishmania donovani MHOM-ET-67/L82 amastigotes
# experiment_notes: In vitro antiprotozoal assay, axenic amastigotes
# Assay type: cell-based
# settings: axenic amastigotes; read-out: L.don.ax. IC50
Square brackets hold non-standard residues; d marks the D form. Peptide text beside a SMILES is read from it. * marks the point of attachment. NH((S)CH(Me)CH2NMe2) = C[C@@H](CN(C)C)N*; NH(1-CH2NMe2-cBu) = CN(C)CC1(N*)CCC1; dGly(nOct) = CCCCCCCC[C@@H](N)C(=O)O; Gly(octyl) = CCCCCCCC[C@H](N)C(=O)O; Oxazole4CO(2-Me) = Cc1nc(C(=O)*)co1; Benzoyl(4-F) = O=C(c1ccc(F)cc1)*; hCha = N[C@@H](CCC1CCCCC1)C(=O)O; X7 = O=C(c1ccc2[nH]ccc2c1)*; X3 = C[C@@H](CN1CCOCC1)N*; Aib = CC(C)(N)C(=O)O; βAla = NCCC(=O)O
Quick list: IC50 per entry.
The reply should contain only the number, in nM.

Example entries begin here.
CC(C)C[C@H](NC(=O)[C@H](CCC1CCCCC1)NC(=O)[C@@H]1CCCN1C(=O)c1ccc(F)cc1)C(=O)NC(C)(C)C(=O)N[C@@H](CC(C)C)C(=O)N[C@@H](CC(C)C)C(=O)NC(C)(C)C(=O)NC(C)(C)C(=O)NCCC(=O)N[C@@H](C)CN1CCOCC1 [Compound 6028] ({Benzoyl(4-F)}-P[hCha]L[Aib]LL[Aib][Aib][βAla]-X3) : 3.3
CCCCCCCC[C@@H](NC(=O)[C@@H]1CCCN1C(=O)c1coc(C)n1)C(=O)N[C@@H](CC(C)C)C(=O)NC(C)(C)C(=O)N[C@@H](CC(C)C)C(=O)N[C@@H](CC(C)C)C(=O)NC(C)(C)C(=O)NC(C)(C)C(=O)NCCC(=O)NC1(CN(C)C)CCC1 [Compound 6789] ({Oxazole4CO(2-Me)}-P[dGly(nOct)]L[Aib]LL[Aib][Aib][βAla]-{NH(1-CH2NMe2-cBu)}) : 3.4

We now examine a further compound.
Request: Identify IC50 associated with the compound CCCCCCCC[C@H](NC(=O)[C@@H]1CCCN1C(=O)c1ccc2[nH]ccc2c1)C(=O)N[C@@H](CC(C)C)C(=O)NC(C)(C)C(=O)N[C@@H](CC(C)C)C(=O)N[C@@H](CC(C)C)C(=O)NC(C)(C)C(=O)NC(C)(C)C(=O)NCCC(=O)N[C@@H](C)CN(C)C [Compound 5911] (X7-P[Gly(octyl)]L[Aib]LL[Aib][Aib][βAla]-{NH((S)CH(Me)CH2NMe2)})
Result: 14.4

====

# experiment_notes: Cytotoxicity assay (Alamar Blue) on L6-cells
# Assay type: cell-based, rat
# settings: rat
Square brackets hold non-standard residues; d marks the D form. Peptide text beside a SMILES is read from it. * marks the point of attachment. Benzoyl(4-CF3) = O=C(c1ccc(C(F)(F)F)cc1)*; NH((S)CH(Me)CH2NMe2) = C[C@@H](CN(C)C)N*; NH(1-CH2NMe2-cBu) = CN(C)CC1(N*)CCC1; dGly(nOct) = CCCCCCCC[C@@H](N)C(=O)O; Gly(octyl) = CCCCCCCC[C@H](N)C(=O)O; Oxazole4CO(2-Me) = Cc1nc(C(=O)*)co1; Benzoyl(4-F) = O=C(c1ccc(F)cc1)*; hCha = N[C@@H](CCC1CCCCC1)C(=O)O; X3 = C[C@@H](CN1CCOCC1)N*; X5 = O=C(C1CCc2ccccc2C1)*; Aib = CC(C)(N)C(=O)O; βAla = NCCC(=O)O
measured_endpoint: IC50 at 68 h
State the result as a value with its unit after it.

CCCCCCCC[C@H](NC(=O)[C@@H]1CCCN1C(=O)c1ccc(C(F)(F)F)cc1)C(=O)N[C@@H](CC(C)C)C(=O)NC(C)(C)C(=O)N[C@@H](CC(C)C)C(=O)N[C@@H](CC(C)C)C(=O)NC(C)(C)C(=O)NC(C)(C)C(=O)NCCC(=O)N[C@@H](C)CN(C)C [Compound 5936] ({Benzoyl(4-CF3)}-P[Gly(octyl)]L[Aib]LL[Aib][Aib][βAla]-{NH((S)CH(Me)CH2NMe2)}) : 0.411 µM
CCCCCCCC[C@H](NC(=O)[C@@H]1CCCN1C(=O)C1CCc2ccccc2C1)C(=O)N[C@@H](CC(C)C)C(=O)NC(C)(C)C(=O)N[C@@H](CC(C)C)C(=O)N[C@@H](CC(C)C)C(=O)NC(C)(C)C(=O)NC(C)(C)C(=O)NCCC(=O)N[C@@H](C)CN(C)C (stereo partly drawn) [Compound 5910] (X5-P[Gly(octyl)]L[Aib]LL[Aib][Aib][βAla]-{NH((S)CH(Me)CH2NMe2)}) : 0.23 µM
CCCCCCCC[C@@H](NC(=O)[C@@H]1CCCN1C(=O)c1coc(C)n1)C(=O)N[C@@H](CC(C)C)C(=O)NC(C)(C)C(=O)N[C@@H](CC(C)C)C(=O)N[C@@H](CC(C)C)C(=O)NC(C)(C)C(=O)NC(C)(C)C(=O)NCCC(=O)NC1(CN(C)C)CCC1 [Compound 6789] ({Oxazole4CO(2-Me)}-P[dGly(nOct)]L[Aib]LL[Aib][Aib][βAla]-{NH(1-CH2NMe2-cBu)}) : 4.28 µM
CC(C)C[C@H](NC(=O)[C@H](CCC1CCCCC1)NC(=O)[C@@H]1CCCN1C(=O)c1ccc(F)cc1)C(=O)NC(C)(C)C(=O)N[C@@H](CC(C)C)C(=O)N[C@@H](CC(C)C)C(=O)NC(C)(C)C(=O)NC(C)(C)C(=O)NCCC(=O)NC1(CN(C)C)CCC1 [Compound 6027] ({Benzoyl(4-F)}-P[hCha]L[Aib]LL[Aib][Aib][βAla]-{NH(1-CH2NMe2-cBu)}) : 1.34 µM
CC(C)C[C@H](NC(=O)[C@H](CCC1CCCCC1)NC(=O)[C@@H]1CCCN1C(=O)c1ccc(F)cc1)C(=O)NC(C)(C)C(=O)N[C@@H](CC(C)C)C(=O)N[C@@H](CC(C)C)C(=O)NC(C)(C)C(=O)NC(C)(C)C(=O)NCCC(=O)N[C@@H](C)CN1CCOCC1 [Compound 6028] ({Benzoyl(4-F)}-P[hCha]L[Aib]LL[Aib][Aib][βAla]-X3) : 1.59 µM

Request: Identify IC50 at 68 h associated with the molecule Cc1nc(C(=O)N2CCC[C@H]2C(=O)N[C@@H](CCC2CCCCC2)C(=O)N[C@@H](CC(C)C)C(=O)NC(C)(C)C(=O)N[C@@H](CC(C)C)C(=O)N[C@@H](CC(C)C)C(=O)NC(C)(C)C(=O)NC(C)(C)C(=O)NCCC(=O)N[C@@H](C)CN2CCOCC2)co1 [Compound 6026] ({Oxazole4CO(2-Me)}-P[hCha]L[Aib]LL[Aib][Aib][βAla]-X3)
Result: 1.58 µM

====

# Test system: Staphylococcus aureus ATCC BAA-1556, USA300 MRSA
# experiment_notes: microbe, parasite or virus in culture
# Type: cell-based
# settings: ATCC BAA-1556
# Description: Pre-formulated compound solution was diluted in 100% DMSO to prepare a 1.6 mg/mL working stock solution. […] The concentration range was 0.032 to 32 μg/mL.
Square brackets hold non-standard residues; d marks the D form. Peptide text beside a SMILES is read from it. * marks the point of attachment. NH(1-CH2NMe2-cBu) = CN(C)CC1(N*)CCC1; dGly(nOct) = CCCCCCCC[C@@H](N)C(=O)O; Oxazole4CO(2-Me) = Cc1nc(C(=O)*)co1; Benzoyl(4-F) = O=C(c1ccc(F)cc1)*; hCha = N[C@@H](CCC1CCCCC1)C(=O)O; X2 = C1CCN(CC2(N*)CCC2)CC1; Aib = CC(C)(N)C(=O)O; X1 = COCCN(CCN*)CCOC; βAla = NCCC(=O)O
Quick list: MIC per entry.
State the result as a value with its unit after it.

COCCN(CCNC(=O)CCNC(=O)C(C)(C)NC(=O)C(C)(C)NC(=O)[C@H](CC(C)C)NC(=O)[C@H](CC(C)C)NC(=O)C(C)(C)NC(=O)[C@H](CC(C)C)NC(=O)[C@H](CCC1CCCCC1)NC(=O)[C@@H]1CCCN1C(=O)c1coc(C)n1)CCOC [Compound 6791] ({Oxazole4CO(2-Me)}-P[hCha]L[Aib]LL[Aib][Aib][βAla]-X1) : 32 mg/L

Request: Identify MIC associated with the compound CCCCCCCC[C@@H](NC(=O)[C@@H]1CCCN1C(=O)c1coc(C)n1)C(=O)N[C@@H](CC(C)C)C(=O)NC(C)(C)C(=O)N[C@@H](CC(C)C)C(=O)N[C@@H](CC(C)C)C(=O)NC(C)(C)C(=O)NC(C)(C)C(=O)NCCC(=O)NC1(CN(C)C)CCC1 [Compound 6789] ({Oxazole4CO(2-Me)}-P[dGly(nOct)]L[Aib]LL[Aib][Aib][βAla]-{NH(1-CH2NMe2-cBu)})
Result: 16 mg/L

Request: Identify MIC associated with the compound Cc1nc(C(=O)N2CCC[C@H]2C(=O)N[C@@H](CCC2CCCCC2)C(=O)N[C@@H](CC(C)C)C(=O)NC(C)(C)C(=O)N[C@@H](CC(C)C)C(=O)N[C@@H](CC(C)C)C(=O)NC(C)(C)C(=O)NC(C)(C)C(=O)NCCC(=O)NC2(CN3CCCCC3)CCC2)co1 [Compound 6483] ({Oxazole4CO(2-Me)}-P[hCha]L[Aib]LL[Aib][Aib][βAla]-X2)
Result: 8 mg/L

Request: Identify MIC associated with the compound Cc1nc(C(=O)N2CCC[C@H]2C(=O)N[C@@H](CC2CCCCC2)C(=O)N[C@@H](CC(C)C)C(=O)NC(C)(C)C(=O)N[C@@H](CC(C)C)C(=O)N[C@@H](CC(C)C)C(=O)NC(C)(C)C(=O)NC(C)(C)C(=O)NCCC(=O)NC2(CN(C)C)CCC2)co1 [Compound 7059] (HELM PEPTIDE1{[Cc1nc(C(=O)[*:2])co1].P.[Cha].L.[Aib].L.L.[Aib].[Aib].[bAla].[CN(C)CC1(N[*:1])CCC1]}$$$$V2.0)
Result: 4 mg/L

Request: Identify MIC associated with the compound CC(C)C[C@H](NC(=O)[C@H](CCC1CCCCC1)NC(=O)[C@@H]1CCCN1C(=O)c1ccc(F)cc1)C(=O)NC(C)(C)C(=O)N[C@@H](CC(C)C)C(=O)N[C@@H](CC(C)C)C(=O)NC(C)(C)C(=O)NC(C)(C)C(=O)NCCC(=O)NC1(CN(C)C)CCC1 [Compound 6027] ({Benzoyl(4-F)}-P[hCha]L[Aib]LL[Aib][Aib][βAla]-{NH(1-CH2NMe2-cBu)})
Result: 1 mg/L
